Biological target: AquaOBP4
Test: Fluorescence competitive binding assay with 1-NPN reporter
Set-up: species or system Ambrostoma quadriimpressum
Details: Figure 6 legend; 1-NPN 2 μM
Protocol: Binding affinity was primarily tested with a panel of 40 A. quadriimpressum habitat-related compounds, most of which are abundantly distributed in elms and A. quadriimpressum. Additionally, one newly identified repellent, cinnamaldehyde, was included[25],[27],[28]. […] N-phenyl-1-naphthylamine (1-NPN) was used as a reporter to measure the affinity of the fluorescent 1-NPN ligand to proteins. […] The reporter was excited at 337 nm, and the emission spectra were recorded between 380 and 500 nm. […]
measure.name: pKi
Please keep in mind that pKi is minus log10 of the molar concentration; only the number is needed.

Report pKi for CCCCCCCCOC(=O)c1ccccc1C(=O)OCCCC [Butyl octyl phthalate] please.
4.90
